Biological target: OR10H5 (Homo sapiens, UniProt Q8NGA6)
Construct: expressed in transfected cells; host or cells: HEK293T cells stably expressing human RTP1S (V227I) and RTP2 (L220R)
Test: Luciferase dose-response, wild-type vs changed C-terminus (SEQ ID NO: 86)
Assay type: cell-based
Conditions: wild-type; read-out: Potency EC50
Sequence (Q8NGA6 whole entry): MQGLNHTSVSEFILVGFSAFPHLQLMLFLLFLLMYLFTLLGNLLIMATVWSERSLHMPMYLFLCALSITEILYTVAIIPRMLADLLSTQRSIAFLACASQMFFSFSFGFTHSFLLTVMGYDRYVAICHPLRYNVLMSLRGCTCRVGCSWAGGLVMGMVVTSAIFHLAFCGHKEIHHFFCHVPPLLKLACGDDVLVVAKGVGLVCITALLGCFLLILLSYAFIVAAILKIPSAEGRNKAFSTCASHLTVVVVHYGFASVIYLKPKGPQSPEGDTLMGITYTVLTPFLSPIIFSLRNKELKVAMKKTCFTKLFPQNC
endpoint label: pEC50
Value format note: pEC50 is -log10 of concentration (mol/L); just state the number.

[in] Fill in the blank: the reported pEC50 of Cc1ccc2c(c1)OCC(=O)CO2 [Calone] is ____.
[out] 4.39

====

Target: OR10J1(M51I,I92M) (Homo sapiens, UniProt P30954, I103M/M62I)
Construct: expressed in transfected cells; host or cells: HEK293T stably expressing human RTP1S(V227I) and RTP2(L220R) (general method)
Sequence (P30954 with tags, fused parts or gaps M62I/I103M): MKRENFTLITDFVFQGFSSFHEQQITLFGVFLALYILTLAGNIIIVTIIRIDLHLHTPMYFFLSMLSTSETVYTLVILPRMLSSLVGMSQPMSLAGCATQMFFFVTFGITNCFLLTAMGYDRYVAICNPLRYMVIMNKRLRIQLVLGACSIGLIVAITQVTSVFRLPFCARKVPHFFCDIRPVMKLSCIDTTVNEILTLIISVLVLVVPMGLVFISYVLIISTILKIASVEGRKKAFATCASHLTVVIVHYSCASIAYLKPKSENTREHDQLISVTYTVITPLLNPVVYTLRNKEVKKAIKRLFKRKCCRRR
Test: Luciferase assay with odorant mixtures/single ingredients, OR with SEQ ID NO: 221
Type: cell-based
Description: All human class II OR and all key genetic variants of these OR were synthesized with a sequence coding for an identical modified C-terminal domain […] (SEQ ID NO: 221) in the vector pcDNA3.1(+) to generate a library of all class II OR with an improved C-terminal domain. Class II OR library members with modified C-terminal domains […]
Assign EC2 (concentration for 2-fold luciferase induction) to each entry below.
State just the number; it will be interpreted in µM.

[in] Fill in the blank: the reported EC2 (concentration for 2-fold luciferase induction) of CCCCCC1CCC(=O)O1 (stereo not drawn) [Nonalactone gamma] is ____.
[out] 11.14

[in] Fill in the blank: the reported EC2 (concentration for 2-fold luciferase induction) of CCCCCCC1CCC(=O)O1 (stereo not drawn) [Decalactone gamma] is ____.
[out] 3.63

[in] Fill in the blank: the reported EC2 (concentration for 2-fold luciferase induction) of CCCCCCCC1CCCC(=O)O1 (stereo not drawn) [Dodecalactone delta] is ____.
[out] 31.38

[in] Fill in the blank: the reported EC2 (concentration for 2-fold luciferase induction) of CCCCCCCC1CCC(=O)O1 (stereo not drawn) [Undecalactone gamma] is ____.
[out] 2.11

[in] Fill in the blank: the reported EC2 (concentration for 2-fold luciferase induction) of CCCCCC1CCCC(=O)O1 (stereo not drawn) [Decalactone delta] is ____.
[out] 31.73

[in] Fill in the blank: the reported EC2 (concentration for 2-fold luciferase induction) of CCCCC1CCC(=O)O1 (stereo not drawn) [Octalactone gamma] is ____.
[out] 101.73

[in] Fill in the blank: the reported EC2 (concentration for 2-fold luciferase induction) of CCCCCCCCC1CCC(=O)O1 (stereo not drawn) [Dodecalactone gamma] is ____.
[out] 5.31

====

Target: OR10H5 (Homo sapiens)
Construct: expressed in transfected cells; host or cells: HEK293T cells stably expressing human RTP1S (V227I) and RTP2 (L220R)
Test: Luciferase dose-response, wild-type vs changed C-terminus (SEQ ID NO: 86)
Assay type: cell-based
Conditions: changed C-term SEQ ID NO: 86; read-out: Potency EC50
Sequence (Q8NGA6 with tags, fused parts or gaps): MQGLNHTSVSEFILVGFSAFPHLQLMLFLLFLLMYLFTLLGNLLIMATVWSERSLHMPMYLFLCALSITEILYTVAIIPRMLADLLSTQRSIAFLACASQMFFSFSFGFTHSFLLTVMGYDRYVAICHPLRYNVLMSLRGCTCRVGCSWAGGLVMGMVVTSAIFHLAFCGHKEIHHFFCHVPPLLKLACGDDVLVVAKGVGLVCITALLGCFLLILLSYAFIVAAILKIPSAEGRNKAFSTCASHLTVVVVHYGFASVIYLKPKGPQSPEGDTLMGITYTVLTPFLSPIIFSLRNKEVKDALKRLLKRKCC
endpoint label: EC50 (µM)
State just the number; it will be interpreted in µM.

[in] Fill in the blank: the reported EC50 of "Cc1ccc2c(c1)OCC(=O)CO2" is ____.
[out] 60

====

Biological target: OR8K3 (Homo sapiens, UniProt Q8NH51, D295E/Y298D)
Sequence (Q8NH51 with tags, fused parts or gaps D295E/Y298D): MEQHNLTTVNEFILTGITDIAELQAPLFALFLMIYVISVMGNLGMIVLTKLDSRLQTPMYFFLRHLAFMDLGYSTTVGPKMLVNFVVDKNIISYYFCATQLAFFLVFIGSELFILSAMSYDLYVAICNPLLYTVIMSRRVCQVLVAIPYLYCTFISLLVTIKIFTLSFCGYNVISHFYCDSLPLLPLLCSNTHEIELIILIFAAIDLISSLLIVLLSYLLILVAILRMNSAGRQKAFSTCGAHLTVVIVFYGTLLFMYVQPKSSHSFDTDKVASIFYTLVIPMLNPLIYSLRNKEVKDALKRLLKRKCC
Test: cell-based
Settings: changed C-term SEQ ID NO: 86; read-out: Potency EC50
endpoint label: EC50 (µM)
State just the number; it will be interpreted in µM.

[in] Reported EC50 for OR8K3 (Homo sapiens, UniProt Q8NH51, D295E/Y298D), given CC1CCC(C(C)C)C(O)C1 (stereo not shown) [Menthol] ?
[out] 115
